MEASURED_TARGET: AIMP2-DX2 (Homo sapiens)
Sequence (Q13155 1-251 isoform Q13155-2): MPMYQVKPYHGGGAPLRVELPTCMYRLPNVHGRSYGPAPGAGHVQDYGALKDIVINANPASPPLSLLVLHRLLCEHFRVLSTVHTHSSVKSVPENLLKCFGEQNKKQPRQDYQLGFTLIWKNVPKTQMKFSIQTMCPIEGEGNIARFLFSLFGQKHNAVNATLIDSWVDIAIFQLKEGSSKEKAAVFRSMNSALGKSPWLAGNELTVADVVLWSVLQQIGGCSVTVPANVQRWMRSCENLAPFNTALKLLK
PROTOCOL_NOTES: DX2-nanoluciferase assay (DX2 expression change) in transfected A549 cells
EXPERIMENTAL_SETUP: 40 μM, 4 hours treatment, A549 cells transfected with nanoluciferase-DX2; inhibitory effect on AIMP2-DX2 expression
Would you mind labelling by DX-Nanoluciferase activity (40 μM)? At or over 50 is Y, under is N.

Previously resolved entries follow.
MOLECULE | MEASURED_TARGET | ANSWER_LABEL
O=C(Nc1ccc(N2CCOCC2)cc1)[C@H](Cc1c[nH]c2ccccc12)NS(=O)(=O)c1ccc(C(F)(F)F)cc1 | AIMP2-DX2 (Homo sapiens) | N
Cc1ccc(S(=O)(=O)N[C@@H](Cc2cc3ccccc3[nH]2)C(=O)Nc2ccc(N3CCOCC3)cc2)cc1 | AIMP2-DX2 (Homo sapiens) | Y
CC(C)C[C@H](NC(=O)CCS(=O)(=O)c1ccccc1)C(=O)OCc1ccccc1 [Compound 54] | AIMP2-DX2 (Homo sapiens) | N
Cc1ccc(S(=O)(=O)N[C@@H](Cc2cn(C)c3ccccc23)C(=O)Nc2ccc(N3CCOCC3)cc2)cc1 | AIMP2-DX2 (Homo sapiens) | N

*Q* Determine whether this molecule has DX-Nanoluciferase activity (40 μM) no lower than 50: `O=C(NC12CC3CC(CC(C3)C1)C2)[C@H](Cc1c[nH]c2ccccc12)NS(=O)(=O)c1ccc(Br)cc1`
*A* Y

*Q* Next up: `Cc1ccc(S(=O)(=O)N[C@@H](Cc2c[nH]c3ccccc23)C(=O)Nc2ncc(N3CCOCC3)s2)cc1`
*A* Y

###

Test system: A549 cells
PROTOCOL_NOTES: Cell viability by MTT method in A549 cells
Assay type: cell-based
Design: concentration or dose not given beside the values
EXPERIMENTAL_SETUP: 72 hours treatment
ENDPOINT: Cell Viability (% inhibition) (A549) (%)
Could you give me the number in %? Just the number is fine.

Please review the following examples before continuing.
SAMPLE_SMILES | READOUT_UNITS | Cell Viability (% inhibition) (A549)
COc1ccc(CNC(=O)CC[C@H](NS(=O)(=O)c2ccc(C)cc2)C(=O)Nc2ccc(N3CCOCC3)cc2)cc1 | % | 40.19
O=C(Nc1ccc(N2CCOCC2)cc1)[C@H](Cc1c[nH]c2ccccc12)NS(=O)(=O)c1ccc(C(F)(F)F)cc1 | % | 76.90
Cc1ccc(S(=O)(=O)N[C@@H](Cc2c[nH]c3ccccc23)C(=O)Nc2ncc(C)s2)cc1 | % | 15.01
N#Cc1ccc(-c2csc(NC(=O)[C@H](Cc3c[nH]c4ccccc34)NS(=O)(=O)c3ccc(Br)cc3)n2)cc1 | % | 81.69
Cc1ccc(CCNC(=O)[C@H](Cc2c[nH]c3ccccc23)NS(=O)(=O)c2ccc(C)cc2)cc1 | % | 93.28

*Q* Requested field: Cell Viability (% inhibition) (A549). Item: `Cc1ccc(S(=O)(=O)N[C@H](C(=O)Nc2ccc(N3CCOCC3)cc2)[C@H](C)O)cc1`
*A* 13.24

*Q* Next up: `Cc1ccc(S(=O)(=O)N[C@@H](Cc2c[nH]c3ccccc23)C(=O)NNC(=O)c2ccc(N3CCOCC3)cc2)cc1`
*A* 18.63

*Q* Next up: `COc1ccc(S(=O)(=O)N[C@@H](Cc2c[nH]c3ccccc23)C(=O)Nc2ccc(N3CCOCC3)cc2)cc1`
*A* 38.64

*Q* Next up: `COc1ccc(-c2csc(NC(=O)[C@H](Cc3c[nH]c4ccccc34)NS(=O)(=O)c3ccc(Br)cc3)n2)cc1`
*A* 90.17

*Q* Next up: `Cc1ccc(S(=O)(=O)N[C@@H](Cn2cnc3ccccc32)C(=O)Nc2ccc(N3CCOCC3)cc2)cc1`
*A* 14.63

*Q* Next up: `Cc1ccc(S(=O)(=O)N[C@@H](CC(C)C)C(=O)Nc2nc(-c3ccc(N4CCOCC4)cc3)cs2)cc1`
*A* 73.11

*Q* Next up: `Cc1ccc(S(=O)(=O)N[C@@H](CC(=O)OCc2ccccc2)C(=O)Nc2ccc(N3CCOCC3)cc2)cc1`
*A* 15.9

*Q* Next up: `COc1cc(N2CCNCC2)ccc1NC(=O)[C@H](Cc1c[nH]c2ccccc12)NS(=O)(=O)c1ccc(C)cc1`
*A* 51.15

Entry source: patent US20220204497A1
